All figures here come from paper PMC9931771.

Experiment: Phase 1 trial: pharmacokinetics of surufatinib and toripalimab (non-compartmental analysis)
Format: in vivo, human
Details: human, in vivo, oral, surufatinib 300 mg + toripalimab 240 mg; C3D1; N 10; read-out: Surufatinib Tmax, median
Description: Blood samples were collected for PK evaluation at multiple time points on Cycle 1 Day 1, Cycle 2 Day 1, and Cycle 3 Day 1 for surufatinib and toripalimab, respectively. […] Two-sided 95% confidence interval (CI) of ORR and DCR were computed using the Exact (Clopper–Pearson) method. […] PK parameters were calculated by non-compartmental analysis using Phoenix WinNonlin v8.0.
measure: Tmax (h)
A number alone suffices; assume h.

# lookup: Tmax of Cc1cc2cc(Oc3ccnc(Nc4cccc(CS(=O)(=O)NCCN(C)C)c4)n3)ccc2[nH]1 [surufatinib] 2

* * *

experiment: Phase 1 trial: pharmacokinetics of surufatinib and toripalimab (non-compartmental analysis); type: in vivo, human; conditions: human, in vivo, oral, surufatinib 200 mg + toripalimab 240 mg; C3D1; footnote 3 (N 2); read-out: Surufatinib t1/2, median (converted)
measure: half-life (h)
A number alone suffices; assume h.

# lookup: half-life of Cc1cc2cc(Oc3ccnc(Nc4cccc(CS(=O)(=O)NCCN(C)C)c4)n3)ccc2[nH]1 [surufatinib] 10.1

* * *

experiment: Phase 1 trial: pharmacokinetics of surufatinib and toripalimab (non-compartmental analysis); format: in vivo, human; conditions: human, in vivo, oral, surufatinib 300 mg + toripalimab 240 mg; C1D1; N 10; read-out: Surufatinib AUC0-τ, geometric mean (CV%)
measure: AUC (ng·h/mL)
A number alone suffices; assume ng·h/mL.

# lookup: AUC of "Cc1cc2cc(Oc3ccnc(Nc4cccc(CS(=O)(=O)NCCN(C)C)c4)n3)ccc2[nH]1" 1880

* * *

assay: Phase 1 trial: pharmacokinetics of surufatinib and toripalimab (non-compartmental analysis); type: in vivo, human; settings: human, in vivo, oral, surufatinib 250 mg + toripalimab 240 mg; C2D1; N 11; read-out: Surufatinib Tmax, median
measure: Tmax (h)
A number alone suffices; assume h.

# lookup: Tmax of Cc1cc2cc(Oc3ccnc(Nc4cccc(CS(=O)(=O)NCCN(C)C)c4)n3)ccc2[nH]1 [surufatinib] 2

* * *

assay: Phase 1 trial: pharmacokinetics of surufatinib and toripalimab (non-compartmental analysis); type: in vivo, human; conditions: human, in vivo, oral, surufatinib 300 mg + toripalimab 240 mg; C2D1; footnote 4 (N 8); read-out: Surufatinib t1/2, median (converted)
measure: half-life
Kindly format the answer as number then unit.

# lookup: half-life of "Cc1cc2cc(Oc3ccnc(Nc4cccc(CS(=O)(=O)NCCN(C)C)c4)n3)ccc2[nH]1" 14.4 h

* * *

test: Phase 1 trial: pharmacokinetics of surufatinib and toripalimab (non-compartmental analysis); type: in vivo, human; conditions: human, in vivo, oral, surufatinib 300 mg + toripalimab 240 mg; C2D1; N 10; read-out: Surufatinib Cmax, geometric mean (CV%)
measure: Cmax (ng/mL)
A number alone suffices; assume ng/mL.

# lookup: Cmax of Cc1cc2cc(Oc3ccnc(Nc4cccc(CS(=O)(=O)NCCN(C)C)c4)n3)ccc2[nH]1 [surufatinib] 281

* * *

assay: Phase 1 trial: pharmacokinetics of surufatinib and toripalimab (non-compartmental analysis); assay type: in vivo, human; details: human, in vivo, oral, surufatinib 250 mg + toripalimab 240 mg; C3D1; footnote 3 (N 8); read-out: Surufatinib Vd/F, geometric mean (CV%)
measure: Vd/F
Kindly format the answer as number then unit.

# lookup: Vd/F of "Cc1cc2cc(Oc3ccnc(Nc4cccc(CS(=O)(=O)NCCN(C)C)c4)n3)ccc2[nH]1" 2540 L
